test: Caco-2 cell permeability assay (efflux ratio); format: in vitro ADME, human; conditions: human, Caco-2, Papp B to A/Papp A to AB, differentiated Caco-2 cell monolayer; read-out: Caco-2 BA/AB (efflux ratio)
QUANTITY NAME: efflux ratio

# example entries with known answers
{"COMPOUND": "Cc1cc(-c2ncnn2C)c2cccc(OCc3c(Cl)cccc3C(C)NC(=O)COC(F)F)c2n1 (stereo not drawn) [compound 174, reference compound]", "REPORTED MEASUREMENT": 1.3}
{"COMPOUND": "Cc1cc(-n2cc(F)cn2)c2cccc(OCc3c(Cl)cc(F)cc3[C@H](C)NC(=O)[C@@H](C)O)c2n1", "REPORTED MEASUREMENT": 0.7}
{"COMPOUND": "Cc1cc(-n2cc(F)cn2)c2cccc(OCc3c(Cl)cccc3C(C)NC(=O)[C@@H](C)O)c2n1 (stereo partly drawn) [compound 173, reference compound]", "REPORTED MEASUREMENT": 1.1}
{"COMPOUND": "[2H][C@@](C)(NC(=O)COC(F)F)c1cc(F)cc(Cl)c1COc1cccc2c(-c3ncnn3C)cc(C)nc12", "REPORTED MEASUREMENT": 1.3}
{"COMPOUND": "Cc1cc(-c2ncnn2C)c2cccc(OCc3c(Cl)cc(F)cc3[C@H](C)NC(=O)COC(F)F)c2n1", "REPORTED MEASUREMENT": 1}

a: Cc1cc(-n2cc(F)cn2)c2cccc(OCc3c(Cl)cc(F)cc3[C@H](C)NC(=O)[C@H](C)O)c2n1
b: Cc1cc(-n2cc(F)cn2)c2cccc(OCc3c(Cl)cccc3C(C)NC(=O)[C@H](C)O)c2n1 (stereo partly drawn) [compound 172, reference compound]
Of the two listed items, a and b , which carries the larger efflux ratio figure? Record your answer as the label of the chosen record. b
(b: 1.6, a: 0.6)

###

Molecular target: UniProtKB P30411
Sequence (P30411 1-391): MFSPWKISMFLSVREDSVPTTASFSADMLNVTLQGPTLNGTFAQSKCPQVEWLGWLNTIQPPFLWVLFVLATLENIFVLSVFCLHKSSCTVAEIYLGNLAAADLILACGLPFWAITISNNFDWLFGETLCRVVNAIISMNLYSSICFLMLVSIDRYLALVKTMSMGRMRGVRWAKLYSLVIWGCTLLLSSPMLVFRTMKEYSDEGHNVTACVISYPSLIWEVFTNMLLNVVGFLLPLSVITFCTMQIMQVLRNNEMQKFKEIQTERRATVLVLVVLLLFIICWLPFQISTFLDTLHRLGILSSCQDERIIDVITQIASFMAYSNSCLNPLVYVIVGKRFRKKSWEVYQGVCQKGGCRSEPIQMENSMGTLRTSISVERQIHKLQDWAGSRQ
Assay: cell-based human bradykinin B2 receptor calcium mobilization (hB2R-CaM) assay
Conditions: HTS041C cells, bradykinin at EC80, calcium mobilization; read-out: IC50-value towards human bradykinin B2 receptor (hB2R)
Entries and their IC50 values follow.

{"SMILES NOTATION": "CC[C@H](NC(=O)C(F)F)c1cc(F)cc(Cl)c1COc1cccc2c(-c3ncnn3C)cc(C)nc12", "IC50": "≤ 50 nM"}

Record Cc1cc(-c2ccnn2C)c2cccc(OCc3c(Cl)cc(F)cc3[C@H](C)NC(=O)C(F)F)c2n1 , field IC50: ≤ 50 nM

So, CCn1ncnc1-c1cc(C)nc2c(OCc3c(Cl)cc(F)cc3[C@H](C)NC(=O)COC(F)(F)F)cccc12 ? Its IC50 was ≤ 50 nM

IC50 for [2H][C@@](C)(NC(=O)[C@H](C)F)c1cc(F)cc(Cl)c1COc1cccc2c(-n3ncnc3C)cc(C)nc12 is ≤ 50 nM

// sample Cc1cc(-n2cc(F)cn2)c2cccc(OCc3c(Cl)cc(F)cc3[C@H](C)NC(=O)[C@@H](C)O)c2n1 , its IC50 was 51 to 250 nM

Cc1cc(-c2[nH]ncc2C)c2cccc(OCc3c(Cl)cc(F)cc3[C@H](C)NC(=O)C(F)F)c2n1 has a reported IC50 of 51 to 250 nM

###

Target: human bradykinin B2 receptor (hB2R) (Homo sapiens, UniProt P30411)
Sequence (P30411 1-391): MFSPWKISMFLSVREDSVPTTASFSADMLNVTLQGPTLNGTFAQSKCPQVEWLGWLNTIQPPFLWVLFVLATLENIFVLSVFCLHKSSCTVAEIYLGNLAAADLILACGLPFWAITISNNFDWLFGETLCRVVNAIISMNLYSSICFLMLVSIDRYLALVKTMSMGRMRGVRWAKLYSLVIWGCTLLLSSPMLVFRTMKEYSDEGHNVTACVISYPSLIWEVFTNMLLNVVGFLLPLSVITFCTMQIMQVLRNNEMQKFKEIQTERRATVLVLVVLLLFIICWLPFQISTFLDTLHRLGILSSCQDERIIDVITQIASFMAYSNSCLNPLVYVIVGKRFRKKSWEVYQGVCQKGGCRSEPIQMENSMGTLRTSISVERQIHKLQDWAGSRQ
Assay: cell-based human bradykinin B2 receptor calcium mobilization (hB2R-CaM) assay
Conditions: HTS041C cells, bradykinin at EC80, calcium mobilization; read-out: IC50-value towards human bradykinin B2 receptor (hB2R)
Each entry below lists one item and its recorded IC50 value.

{"MOLECULE": "[2H][C@@](C)(NC(=O)CC(F)(F)F)c1cc(F)cc(Cl)c1COc1cccc2c(-n3ncnc3C)cc(C)nc12", "TESTED TARGET": "human bradykinin B2 receptor (hB2R) (Homo sapiens, UniProt P30411)", "REPORTED MEASUREMENT": "≤ 0.05 µM"}
{"MOLECULE": "Cc1cc(-n2cc(F)cn2)c2cccc(OCc3c(Cl)cc(F)cc3[C@H](C)NC(=O)c3cc(C)on3)c2n1", "TESTED TARGET": "human bradykinin B2 receptor (hB2R) (Homo sapiens, UniProt P30411)", "REPORTED MEASUREMENT": "0.051 to 0.25 µM"}
{"MOLECULE": "Cc1cc(-c2ncnn2C)c2cccc(OCc3c(Cl)cc(F)cc3[C@H](C)NC(=O)c3ocnc3C)c2n1", "TESTED TARGET": "human bradykinin B2 receptor (hB2R) (Homo sapiens, UniProt P30411)", "REPORTED MEASUREMENT": "≤ 0.05 µM"}
{"MOLECULE": "Cc1cc(-n2cc(F)cn2)c2cccc(OCc3c(Cl)cc(F)cc3[C@H](C)NC(=O)C(C)(C)C(F)(F)F)c2n1", "TESTED TARGET": "human bradykinin B2 receptor (hB2R) (Homo sapiens, UniProt P30411)", "REPORTED MEASUREMENT": "0.051 to 0.25 µM"}
{"MOLECULE": "Cc1cc(-n2cc(F)cn2)c2cccc(OCc3c(Cl)cc(F)cc3[C@H](C)NC(=O)c3ccncc3)c2n1", "TESTED TARGET": "human bradykinin B2 receptor (hB2R) (Homo sapiens, UniProt P30411)", "REPORTED MEASUREMENT": "0.051 to 0.25 µM"}
{"MOLECULE": "Cc1cc(-c2ncc(C#N)n2C)c2cccc(OCc3c(Cl)cc(F)cc3[C@H](C)NC(=O)C(C)F)c2n1 (some centres unmarked)", "TESTED TARGET": "human bradykinin B2 receptor (hB2R) (Homo sapiens, UniProt P30411)", "REPORTED MEASUREMENT": "≤ 0.05 µM"}

Tested on human bradykinin B2 receptor (hB2R) (Homo sapiens, UniProt P30411): Cc1cc(-c2ncnn2C)c2cccc(OCc3c(Cl)cc(F)cc3[C@H](C)NC(=O)c3cnco3)c2n1 . Observed IC50: ≤ 0.05 µM

Simply: COC(=O)[C@@H](O)CC(=O)N[C@@H](C)c1cc(F)cc(Cl)c1COc1cccc2c(-n3cc(F)cn3)cc(C)nc12 , human bradykinin B2 receptor (hB2R) (Homo sapiens, UniProt P30411), IC50 = ≤ 0.05 µM

###

molecular target: human bradykinin B2 receptor (hB2R) (Homo sapiens); assay: cell-based human bradykinin B2 receptor calcium mobilization (hB2R-CaM) assay; conditions: HTS041C cells, bradykinin at EC80, calcium mobilization; read-out: IC50-value towards human bradykinin B2 receptor (hB2R)
pIC50: −log10 of the molar value.
QUANTITY NAME: pIC50

Below, 3 compounds whose answers are already recorded.
{"COMPOUND": "Cc1cc(-n2cc(F)cn2)c2cccc(OCc3c(Cl)cc(F)cc3[C@H](C)NC(=O)[C@@H]3CNC(=O)N3)c2n1 [Compound 113]", "REPORTED MEASUREMENT": "6.60 to 7.29"}
{"COMPOUND": "Cc1cc(-n2cc(F)cn2)c2cccc(OCc3c(Cl)cc(F)cc3[C@H](C)NC(=O)C(F)F)c2n1 [Compound 146]", "REPORTED MEASUREMENT": "6.60 to 7.29"}
{"COMPOUND": "Cc1cc(-c2ncnn2C)c2cccc(OCc3c(Cl)cc(F)cc3[C@H](C)NC(=O)[C@@H](C)OC(F)F)c2n1 [Compound 85]", "REPORTED MEASUREMENT": "≥ 7.30"}

Cc1cc(-c2ncnn2C)c2cccc(OCc3c(Cl)cc(F)cc3[C@H](C)NC(=O)[C@@H](C)O)c2n1 [Compound 63] has a reported pIC50 of ≥ 7.30

Per the records, this compound ( CC[C@H](NC(=O)c1ccon1)c1cc(F)cc(Cl)c1COc1cccc2c(-n3cc(F)cn3)cc(C)nc12 [Compound 153] ) has pIC50 equal to 6.60 to 7.29

Record Cc1cc(-n2ncnc2C)c2cccc(OCc3c(Cl)cc(F)cc3[C@H](C)NC(=O)c3cocn3)c2n1 [Compound 159] , field pIC50: ≥ 7.30
